From: ChEMBL document CHEMBL1800056

Target: Protein deacetylase HDAC6 (Homo sapiens, UniProt Q9UBN7)
Sequence (Q9UBN7 whole entry): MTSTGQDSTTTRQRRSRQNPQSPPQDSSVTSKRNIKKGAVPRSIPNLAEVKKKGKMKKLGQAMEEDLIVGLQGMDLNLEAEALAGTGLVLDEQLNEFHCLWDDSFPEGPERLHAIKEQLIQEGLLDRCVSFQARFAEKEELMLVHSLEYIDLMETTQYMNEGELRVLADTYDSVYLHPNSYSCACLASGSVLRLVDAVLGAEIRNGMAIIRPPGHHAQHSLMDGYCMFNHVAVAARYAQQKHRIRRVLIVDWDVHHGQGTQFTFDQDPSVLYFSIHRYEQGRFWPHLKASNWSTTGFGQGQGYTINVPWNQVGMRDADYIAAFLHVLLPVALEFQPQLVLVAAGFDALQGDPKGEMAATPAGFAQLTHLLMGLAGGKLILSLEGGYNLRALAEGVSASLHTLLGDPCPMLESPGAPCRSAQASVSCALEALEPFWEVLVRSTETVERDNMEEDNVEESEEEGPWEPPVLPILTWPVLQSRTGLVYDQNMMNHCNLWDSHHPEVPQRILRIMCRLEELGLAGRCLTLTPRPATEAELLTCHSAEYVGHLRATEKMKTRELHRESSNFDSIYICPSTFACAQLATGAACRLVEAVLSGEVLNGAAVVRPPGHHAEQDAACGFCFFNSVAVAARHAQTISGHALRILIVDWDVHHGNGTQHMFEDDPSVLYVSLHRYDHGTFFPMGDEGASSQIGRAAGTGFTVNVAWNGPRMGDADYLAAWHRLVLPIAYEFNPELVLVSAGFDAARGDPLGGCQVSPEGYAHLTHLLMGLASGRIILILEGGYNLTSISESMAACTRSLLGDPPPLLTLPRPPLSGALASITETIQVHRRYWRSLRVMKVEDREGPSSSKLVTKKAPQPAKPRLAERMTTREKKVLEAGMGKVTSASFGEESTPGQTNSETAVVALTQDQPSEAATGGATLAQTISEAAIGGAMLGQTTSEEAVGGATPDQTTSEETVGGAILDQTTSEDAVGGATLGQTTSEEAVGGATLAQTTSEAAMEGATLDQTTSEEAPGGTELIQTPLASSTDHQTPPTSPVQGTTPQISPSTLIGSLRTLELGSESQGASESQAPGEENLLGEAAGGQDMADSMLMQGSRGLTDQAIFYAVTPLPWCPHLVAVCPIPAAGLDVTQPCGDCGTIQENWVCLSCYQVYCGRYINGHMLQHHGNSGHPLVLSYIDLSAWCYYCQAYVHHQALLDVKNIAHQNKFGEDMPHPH
Experiment: Inhibition of human recombinant HDAC6 using fluor de Lys as substrate by fluorometric analysis
pIC50: −log10 of the molar value.
This section presents compounds with their documented pIC50 values.

compound | pIC50
O=C(NO)c1cnc(N2C[C@@H]3[C@H](C2)[C@H]3NCc2ccc3cc(F)ccc3n2)nc1 [NANATINOSTAT] | 5.68
O=C(NO)c1cnc(N2C[C@@H]3[C@H](C2)[C@H]3NCc2ccc(Cl)cc2)nc1 | 5.48

* * *

Test: AUC (0 to t) in dog at 1 mg/kg, iv
Assay type: ADME, organism-based, Canis lupus familiaris
Parameters: dose 1 mg/kg, route intravenous
Conditions: plasma

record-smiles | endpoint-unit | AUC(0-t)
O=C(NO)c1cnc(N2C[C@@H]3[C@H](C2)[C@H]3NCc2ccc(Cl)cc2)nc1 | ng·h/mL | 265
O=C(NO)c1cnc(N2C[C@@H]3[C@H](C2)[C@H]3NCc2ccc3cc(F)ccc3n2)nc1 | ng·h/mL | 241

* * *

Molecular target: Histone deacetylase
Assay: Inhibition of HDAC in human HeLa cells nuclear extract using fluor de Lys as substrate preincubated for 5 mins by fluorometric analysis
Format: cell-based

record-smiles | IC50
O=C(NO)c1cnc(N2C[C@@H]3[C@H](C2)[C@H]3NS(=O)(=O)c2cccs2)nc1 | 27 nM
CN([C@H]1[C@@H]2CN(c3ncc(C(=O)NO)cn3)C[C@@H]21)S(=O)(=O)c1ccc2ccccc2c1 | 23 nM
O=C(NO)c1cnc(N2C[C@@H]3[C@H](C2)[C@H]3NCc2ccc(OC(F)(F)F)cc2)nc1 | 15 nM
O=C(NO)c1cnc(N2C[C@@H]3[C@H](C2)[C@H]3NC(=O)c2cccs2)nc1 | 40 nM

* * *

Target: UniProt:Q9UQL6
Sequence (Q9UQL6 whole entry): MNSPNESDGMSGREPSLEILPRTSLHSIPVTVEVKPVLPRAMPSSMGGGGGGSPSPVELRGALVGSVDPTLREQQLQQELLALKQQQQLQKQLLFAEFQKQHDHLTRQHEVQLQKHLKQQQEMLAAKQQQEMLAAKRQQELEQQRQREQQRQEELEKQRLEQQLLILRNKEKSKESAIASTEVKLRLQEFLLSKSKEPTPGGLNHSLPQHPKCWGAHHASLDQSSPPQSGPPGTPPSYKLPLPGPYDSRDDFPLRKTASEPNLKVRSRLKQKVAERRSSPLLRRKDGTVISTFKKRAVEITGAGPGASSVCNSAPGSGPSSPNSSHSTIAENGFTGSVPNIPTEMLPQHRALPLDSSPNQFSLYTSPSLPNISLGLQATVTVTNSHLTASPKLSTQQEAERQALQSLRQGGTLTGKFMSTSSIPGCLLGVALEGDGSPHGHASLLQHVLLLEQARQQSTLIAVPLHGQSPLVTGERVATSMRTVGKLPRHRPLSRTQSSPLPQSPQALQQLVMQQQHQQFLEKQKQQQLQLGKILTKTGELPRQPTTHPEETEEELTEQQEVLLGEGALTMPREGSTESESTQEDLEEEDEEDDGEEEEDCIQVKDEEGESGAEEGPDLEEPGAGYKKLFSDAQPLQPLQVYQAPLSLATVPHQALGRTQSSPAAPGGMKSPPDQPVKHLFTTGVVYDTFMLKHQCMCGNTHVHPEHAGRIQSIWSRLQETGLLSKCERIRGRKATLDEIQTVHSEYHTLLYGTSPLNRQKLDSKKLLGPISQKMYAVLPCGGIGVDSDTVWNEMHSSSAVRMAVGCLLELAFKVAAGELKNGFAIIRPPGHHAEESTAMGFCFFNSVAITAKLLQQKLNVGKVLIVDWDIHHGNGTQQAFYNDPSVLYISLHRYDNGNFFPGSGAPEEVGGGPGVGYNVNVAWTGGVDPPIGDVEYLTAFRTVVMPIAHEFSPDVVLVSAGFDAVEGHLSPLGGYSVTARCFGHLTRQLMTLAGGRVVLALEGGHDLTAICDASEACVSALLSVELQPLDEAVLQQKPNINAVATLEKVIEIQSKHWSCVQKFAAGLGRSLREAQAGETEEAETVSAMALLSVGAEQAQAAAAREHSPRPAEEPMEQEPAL
Experiment: Inhibition of human recombinant HDAC5 using fluor de Lys as substrate by fluorometric analysis
readout-kind: IC50

record-smiles | endpoint-result
O=C(NO)c1cnc(N2C[C@@H]3[C@H](C2)[C@H]3NCc2ccc3cc(F)ccc3n2)nc1 | 200 nM
O=C(NO)c1cnc(N2C[C@@H]3[C@H](C2)[C@H]3NCc2ccc(Cl)cc2)nc1 | 500 nM

* * *

Experiment: Half life in rat at 10 mg/kg, po
Type: ADME, organism-based
Design: dose 10 mg/kg, route oral
Conditions: in vivo
readout-kind: half-life (h)

compound | readout-kind | endpoint-result
O=C(NO)c1cnc(N2C[C@@H]3[C@H](C2)[C@H]3NCc2ccc3cc(F)ccc3n2)nc1 [NANATINOSTAT] | half-life | 5.2

* * *

Reported values: pIC50 for Cytochrome P450 2D6 (Homo sapiens), one per item.
pIC50: −log10 of the molar value.
readout-kind: pIC50

record-smiles | endpoint-result
O=C(NO)c1cnc(N2C[C@@H]3[C@H](C2)[C@H]3NCc2ccc3cc(F)ccc3n2)nc1 | < 4.30
O=C(NO)c1cnc(N2C[C@@H]3[C@H](C2)[C@H]3NS(=O)(=O)c2ccc3ccccc3c2)nc1 | 5.00
O=C(NO)c1cnc(N2C[C@@H]3[C@H](C2)[C@H]3NCc2ccc3ccccc3c2)nc1 | < 4.30

* * *

Experiment: Clearance in mouse liver microsomes assessed as compound remaining after 30 mins
Format: ADME, Microsome
Settings: read-out: Activity

record-smiles | remaining at 0.5 h
O=C(NO)c1cnc(N2C[C@@H]3[C@H](C2)[C@H]3NCc2ccc3ccccc3c2)nc1 | 100%
O=C(NO)c1cnc(N2C[C@@H]3[C@H](C2)[C@H]3NCc2ccc(Cl)cc2)nc1 | 43%
O=C(NO)c1cnc(N2C[C@@H]3[C@H](C2)[C@H]3NCc2ccc3cc(F)ccc3n2)nc1 | 31%
O=C(NO)c1cnc(N2C[C@@H]3[C@H](C2)[C@H]3NS(=O)(=O)c2ccc3ccccc3c2)nc1 | 66%

* * *

Target: Histone deacetylase 3 (Homo sapiens)
Sequence (O15379 whole entry): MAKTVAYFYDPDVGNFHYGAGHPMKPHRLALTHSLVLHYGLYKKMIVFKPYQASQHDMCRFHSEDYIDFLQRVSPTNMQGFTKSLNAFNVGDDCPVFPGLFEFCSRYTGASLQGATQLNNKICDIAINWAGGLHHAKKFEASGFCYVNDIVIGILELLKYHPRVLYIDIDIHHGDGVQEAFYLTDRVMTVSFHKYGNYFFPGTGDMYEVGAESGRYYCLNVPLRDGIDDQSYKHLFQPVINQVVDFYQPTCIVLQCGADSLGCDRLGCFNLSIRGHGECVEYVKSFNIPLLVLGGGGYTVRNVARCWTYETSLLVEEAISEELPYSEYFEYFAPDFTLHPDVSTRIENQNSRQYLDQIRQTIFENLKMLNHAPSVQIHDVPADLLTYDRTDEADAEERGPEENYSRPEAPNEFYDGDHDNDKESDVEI
Assay: Inhibition of human recombinant HDAC3 using fluor de Lys as substrate by fluorometric analysis

molecule | IC50
O=C(NO)c1cnc(N2C[C@@H]3[C@H](C2)[C@H]3NCc2ccc(Cl)cc2)nc1 | 10 nM
O=C(NO)c1cnc(N2C[C@@H]3[C@H](C2)[C@H]3NCc2ccc3cc(F)ccc3n2)nc1 [NANATINOSTAT] | 7 nM

* * *

Assay: Clearance in dog at 1 mg/kg, iv
Type: ADME, organism-based, Canis lupus familiaris
Parameters: dose 1 mg/kg, route intravenous
Conditions: in vivo

record-smiles | endpoint-unit | clearance
O=C(NO)c1cnc(N2C[C@@H]3[C@H](C2)[C@H]3NCc2ccc(Cl)cc2)nc1 | mL/min/kg | 63
O=C(NO)c1cnc(N2C[C@@H]3[C@H](C2)[C@H]3NCc2ccc3cc(F)ccc3n2)nc1 | mL/min/kg | 70

* * *

The molecules listed here are annotated with their AUC(0-t).
Assay: AUC (0 to t) in plasma of CD1 mouse at 3 mg/kg, po
Assay type: ADME, organism-based
Design: dose 3 mg/kg, route oral

record-smiles | AUC(0-t) (ng·h/mL)
O=C(NO)c1cnc(N2C[C@@H]3[C@H](C2)[C@H]3NCc2ccc(Cl)cc2)nc1 | 58
O=C(NO)c1cnc(N2C[C@@H]3[C@H](C2)[C@H]3NCc2ccc3cc(F)ccc3n2)nc1 | 93
O=C(NO)c1cnc(N2C[C@@H]3[C@H](C2)[C@H]3NCc2ccc(OC(F)(F)F)cc2)nc1 | 83
O=C(NO)c1cnc(N2C[C@@H]3[C@H](C2)[C@H]3NCc2ccc3ccccc3c2)nc1 | 50
O=C(NO)c1cnc(N2C[C@@H]3[C@H](C2)[C@H]3NCc2ccc3ccccc3n2)nc1 | 42
O=C(NO)c1cnc(N2C[C@@H]3[C@H](C2)[C@H]3NCc2ccc(Oc3ccccc3)cc2)nc1 | 52

* * *

Assay: Ratio of drug level in spleen to plasma of CrTac:NCr-Fox1(nu) athymic mouse at 50 mg/kg, po administered daily for 16 days
Type: ADME, organism-based
Set-up: dose 50 mg/kg, route oral
readout-kind: Kp at 384 h

record-smiles | readout-kind | endpoint-result
O=C(NO)c1cnc(N2C[C@@H]3[C@H](C2)[C@H]3NCc2ccc(Cl)cc2)nc1 | Kp at 384 h | 4

* * *

Test system: Spleen
Assay: Ratio of AUC (0 to t) in spleen to plasma of CD1 mouse at 3 mg/kg, po
Conditions: in vivo
Below is a list of entries, each paired with its recorded Ratio value.

compound | Ratio
O=C(NO)c1cnc(N2C[C@@H]3[C@H](C2)[C@H]3NCc2ccc3ccccc3c2)nc1 | 2.9
O=C(NO)c1cnc(N2C[C@@H]3[C@H](C2)[C@H]3NCc2ccc3cc(F)ccc3n2)nc1 [NANATINOSTAT] | 8.3
O=C(NO)c1cnc(N2C[C@@H]3[C@H](C2)[C@H]3NCc2ccc(Oc3ccccc3)cc2)nc1 | 4.2
O=C(NO)c1cnc(N2C[C@@H]3[C@H](C2)[C@H]3NCc2ccc(OC(F)(F)F)cc2)nc1 | 3
O=C(NO)c1cnc(N2C[C@@H]3[C@H](C2)[C@H]3NCc2ccc3ccccc3n2)nc1 | 7
O=C(NO)c1cnc(N2C[C@@H]3[C@H](C2)[C@H]3NCc2ccc(Cl)cc2)nc1 | 7.5
